This section presents molecules with their documented inhibition values.
biological target: Glucose transporter (Leishmania mexicana); test: ST_JUDE_LEISH: Cytotoxicity at 2uM final concentration against transgenic Leishmania Mexicana promastigotes LmGT2 that are glucose transport deficient and complemented with the L. Mexicana glucose transporter 2. Activity is measured by DNA content using SYBR green in vitro; type: functional

Molecule: COc1ccc(C2C(C(=O)Nc3ccc4c(c3)OCO4)c3cc(OC)c(OC)cc3C(=O)N2C)cc1 (centres undefined)
Measured On: Glucose transporter (Leishmania mexicana)
inhibition: 0.53%

Molecule: COc1ccc(Nc2nccc(-c3ccc4c(-c5ccsc5)cnc(N)c4c3)n2)cc1
Measured On: Glucose transporter (Leishmania mexicana)
inhibition: 6.65%

Molecule: O=C(COc1ccc(C(=O)c2ccccc2)cc1)Nc1nccs1
Measured On: Glucose transporter (Leishmania mexicana)
inhibition: -3.28%

Molecule: CC(C)OCCCNC(=O)c1nc(-c2cccc(C(F)(F)F)c2)sc1C(C)C
Measured On: Glucose transporter (Leishmania mexicana)
inhibition: 4.46%

Molecule: Cc1nnc2c(NC(=O)NC3CCCC3)cc3cc(-c4ccc(CN5CCCCC5)cc4)ccc3n12
Measured On: Glucose transporter (Leishmania mexicana)
inhibition: 0.13%

Molecule: Cc1[nH]c(C)c(-c2ccc(CCc3ccc(C(F)(F)F)cc3)nc2)c(=O)c1Cl
Measured On: Glucose transporter (Leishmania mexicana)
inhibition: 0.56%

Molecule: Nc1nc(N)c2c(ccc3c2ncn3Cc2ccccc2)n1
Measured On: Glucose transporter (Leishmania mexicana)
inhibition: 10.5%

Molecule: CC1(C)CCC(C)(C)c2c1ccc(C1CCN(CCCCNC(=O)c3ccc(-c4ccc(Cl)cc4)cc3)CC1)c2O
Measured On: Glucose transporter (Leishmania mexicana)
inhibition: 0.11%

Molecule: COc1ccc2nccc([C@@H](O)CN3CCC(NC(=O)c4ccc(-c5ccc(C#N)cc5)cc4)CC3)c2c1
Measured On: Glucose transporter (Leishmania mexicana)
inhibition: 3.25%

* * *

molecular target: Solute carrier family 2, facilitated glucose transporter member 1 (Homo sapiens); assay: ST_JUDE_LEISH: Cytotoxicity at 2uM final concentration against transgenic Leishmania Mexicana promastigotes LmGLUT1 that are glucose transport deficient and complemented with the human glucose transporter GLUT1. Activity is measured by DNA content using SYBR green in vitro; format: functional

Smiles Repr: N=C(N)NC(=O)Nc1cc(Br)c(Br)c(Br)c1
Measured On: Solute carrier family 2, facilitated glucose transporter member 1 (Homo sapiens)
inhibition [%]: 3.42
//
Smiles Repr: CN(CCN)Cc1ccc(-c2ccc(-c3nc4cc(C(F)(F)F)ccc4[nH]3)s2)cc1
Measured On: Solute carrier family 2, facilitated glucose transporter member 1 (Homo sapiens)
inhibition [%]: 15.1
//
Smiles Repr: Cc1cc(N[C@@H](Cc2ccccc2)C(=O)Nc2ccccc2)nc(NCCc2ccc(F)cc2)n1
Measured On: Solute carrier family 2, facilitated glucose transporter member 1 (Homo sapiens)
inhibition [%]: 3.66
//
Smiles Repr: COc1ccc2ncc(F)c(CCN3CC[C@H](NCc4cc(C#N)c5c(c4)OCCO5)[C@H](O)C3)c2c1
Measured On: Solute carrier family 2, facilitated glucose transporter member 1 (Homo sapiens)
inhibition [%]: 42.4
//
Smiles Repr: CC(C)CNCc1cccc(-c2cccc(CNc3ccc4ncccc4c3)c2)c1
Measured On: Solute carrier family 2, facilitated glucose transporter member 1 (Homo sapiens)
inhibition [%]: 2.92
//
Smiles Repr: c1cc(CN2CCCCC2)cc(-c2ccc(-c3nc4ccccc4[nH]3)cc2)c1
Measured On: Solute carrier family 2, facilitated glucose transporter member 1 (Homo sapiens)
inhibition [%]: -0.4
//
Smiles Repr: Cc1nc2ccc([N+](=O)[O-])cc2c(=O)n1OCc1ccccc1
Measured On: Solute carrier family 2, facilitated glucose transporter member 1 (Homo sapiens)
inhibition [%]: 2.26
//
Smiles Repr: CCCNCc1ccc(-c2ccc(CN(CCOC)C(=O)c3nn(-c4ccccc4)nc3C)cc2)nc1
Measured On: Solute carrier family 2, facilitated glucose transporter member 1 (Homo sapiens)
inhibition [%]: 4.16
//
Smiles Repr: CC(C)(C)OC(=O)[C@H](CC(N)=O)NC(=O)c1ccc(-c2ccc(-c3nc4cc(C(F)(F)F)ccc4[nH]3)s2)cc1
Measured On: Solute carrier family 2, facilitated glucose transporter member 1 (Homo sapiens)
inhibition [%]: 5.01
